Reference source for all entries: ChEMBL document CHEMBL5143583

Biological target: UniProt:Q9UBN4
Sequence (Q9UBN4 whole entry): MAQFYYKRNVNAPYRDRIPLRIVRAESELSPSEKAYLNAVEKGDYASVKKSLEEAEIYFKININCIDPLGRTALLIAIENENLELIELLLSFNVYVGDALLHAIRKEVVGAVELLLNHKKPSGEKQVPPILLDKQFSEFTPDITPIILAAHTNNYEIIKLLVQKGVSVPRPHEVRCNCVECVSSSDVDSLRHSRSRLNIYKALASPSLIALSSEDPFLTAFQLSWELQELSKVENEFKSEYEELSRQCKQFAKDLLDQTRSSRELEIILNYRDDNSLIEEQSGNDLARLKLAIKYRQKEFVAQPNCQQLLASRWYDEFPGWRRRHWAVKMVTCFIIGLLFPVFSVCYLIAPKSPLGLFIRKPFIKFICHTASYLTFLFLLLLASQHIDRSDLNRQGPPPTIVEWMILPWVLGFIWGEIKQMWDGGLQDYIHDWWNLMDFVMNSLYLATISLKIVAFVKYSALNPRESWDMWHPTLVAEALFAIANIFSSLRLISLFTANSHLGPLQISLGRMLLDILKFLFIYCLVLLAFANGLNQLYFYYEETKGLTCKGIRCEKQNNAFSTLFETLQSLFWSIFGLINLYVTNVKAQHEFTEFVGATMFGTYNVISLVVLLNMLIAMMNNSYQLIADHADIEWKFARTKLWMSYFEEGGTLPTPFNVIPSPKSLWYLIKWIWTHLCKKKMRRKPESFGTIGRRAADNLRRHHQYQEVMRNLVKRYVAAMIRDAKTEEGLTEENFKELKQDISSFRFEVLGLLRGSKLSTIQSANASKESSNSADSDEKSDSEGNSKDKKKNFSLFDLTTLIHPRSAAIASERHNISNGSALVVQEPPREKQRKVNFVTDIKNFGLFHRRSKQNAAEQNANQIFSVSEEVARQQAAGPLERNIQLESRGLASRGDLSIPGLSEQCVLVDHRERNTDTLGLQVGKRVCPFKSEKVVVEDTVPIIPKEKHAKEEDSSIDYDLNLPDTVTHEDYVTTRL
Experiment: Inhibition of TRPC4 channel (unknown origin) expressed in HEK293 cells assessed as inhibition of EA-evoked Ca2+ entry by measuring reduction in intracellular Ca2+ level by Fluo-4 dye based FLIPR assay
recorded_metric: IC50 (nM)

[
  {
    "chemical_string": "O=C1NC(=O)C(N2CCc3c(ncnc3Oc3ccc(F)cc3C(F)(F)F)C2)=C1Cl",
    "observed_measurement": 65
  }
]
